# Target: D2LR (Homo sapiens, UniProt P14416)
# Sequence (P14416 whole entry): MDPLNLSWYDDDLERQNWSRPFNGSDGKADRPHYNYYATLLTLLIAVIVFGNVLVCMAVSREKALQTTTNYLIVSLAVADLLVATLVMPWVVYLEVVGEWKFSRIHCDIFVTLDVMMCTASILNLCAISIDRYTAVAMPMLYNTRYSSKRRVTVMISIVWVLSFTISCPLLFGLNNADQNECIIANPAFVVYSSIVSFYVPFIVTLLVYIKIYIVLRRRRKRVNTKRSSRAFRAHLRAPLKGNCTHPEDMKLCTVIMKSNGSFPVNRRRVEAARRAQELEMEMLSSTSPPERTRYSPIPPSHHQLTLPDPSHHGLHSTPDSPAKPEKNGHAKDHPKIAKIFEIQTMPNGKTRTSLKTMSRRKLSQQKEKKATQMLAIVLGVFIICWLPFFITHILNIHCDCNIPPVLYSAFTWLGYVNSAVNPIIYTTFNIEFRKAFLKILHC
# Assay Overview: ERK1/2 phosphorylation assay, interaction with dopamine
# Assay type: cell-based
# Measurement Conditions: Table 3; binding cooperativity with dopamine
Measured Parameter: Logα
# print the numeric value only

In the examples that follow, each entry is paired with its recorded Logα.
Compound | Numeric Result
O=C(NC1CCC1)c1cc2ccccc2[nH]1 [Compound 11p, N-Cyclobutyl-1H-indole-2-carboxamide] | −1.77
C=CCNC(=O)c1cc2ccccc2[nH]1 [Compound 11e, N-Allyl-1H-indole-2-carboxamide] | −0.26
CCNC(=O)c1cc2ccccc2[nH]1 [Compound 11b, N-Ethyl-1H-indole-2-carboxamide] | −0.35
CCCNC(=O)c1cc2ccccc2[nH]1 [Compound 11c, N-Propyl-1H-indole-2-carboxamide] | −0.60
O=C(NN1CCCCC1)c1cc2ccccc2[nH]1 [Compound 11s] | −0.53

[ask] Please look up its Logα: CC(C)N(C(=O)c1cc2ccccc2[nH]1)C(C)C [Compound 11j, N,N-Diisopropyl-1H-indole-2-carboxamide]
[reply] −1.39

[ask] Please look up its Logα: O=C(NC1CCCC1)c1cc2ccccc2[nH]1 [Compound 11q, N-Cyclopentyl-1H-indole-2-carboxamide]
[reply] −0.63

###

# Target: D2R (Homo sapiens)
# Sequence (P14416 whole entry): as above
Measured Parameter: Ki (µM)
// note: answer is a bare numeric in µM

[ask] Please look up its Ki: CCCN(CCC)CC[C@H]1CC[C@H](NC(=O)c2cc3ccccc3[nH]2)CC1
[reply] 20

###

# Target: D2LR (Homo sapiens)
# Assay Overview: ERK1/2 phosphorylation assay, interaction with dopamine
# Type: cell-based
# Measurement Conditions: effect on dopamine concentration-response, highest concentration 300 μM

Molecule | activity at the D2R in words
CC(C)NC(=O)c1csc2ccccc12 [Compound 25b] | did not show activity
CC(C)NC(=O)c1cc2ccccc2n1C [Compound 17] | did not show activity
CC(C)NC(=O)c1nc2ccccc2o1 [Compound 21, N-Isopropylbenzo[d]oxazole-2-carboxamide] | did not show activity

###

# Target: D2LR (Homo sapiens)
# Assay Overview: ERK1/2 phosphorylation assay, interaction with dopamine
# Assay type: cell-based
# Measurement Conditions: Table 3; binding cooperativity with dopamine
Outcome: YES for Logα of at least -0.7; NO for anything lower.

The examples below pair each entry with its known result.
Molecule | Answer Label
CC(C)NC(=O)c1cc2cccc(F)c2[nH]1 [Compound 13e] | NO
CC(C)NC(=O)c1cc2c(F)cccc2[nH]1 [Compound 13b] | NO
CC(C)(C)NC(=O)c1cc2ccccc2[nH]1 [Compound 11h, N-(tert-Butyl)-1H-indole-2-carboxamide] | YES

[ask] Is Logα for CCCCNC(=O)c1cc2ccccc2[nH]1 [Compound 11d, N-Butyl-1H-indole-2-carboxamide] at or above -0.7?
[reply] NO
